B1: CDS2 (parent)
chain: IHSIALSTFASLIGPFGGFFASGF

Variants of: B1
Test Method Notes: protein stability index of a GFP-peptide fusion (GPS, HEK-293T) (PSI 1-6); higher = more stable;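 note: lentivirally expressed fusions sorted by FACS into six bins by GFP to DsRed ratio, PSI derived from sequencing read proportions per bin multiplied by bin number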
Measurement Conditions: c terminus: a fixed tail appended
We use 3 as the dividing line for protein stability index: on or above the line is YES, below is NO.

[Q] Does protein stability index meet or surpass 3 for G14E ?
[A] NO

[Q] Does protein stability index meet or surpass 3 for F9Y ?
[A] NO

[Q] Does protein stability index meet or surpass 3 for P15K ?
[A] NO

[Q] Does protein stability index meet or surpass 3 for F24L ?
[A] YES

[Q] Does protein stability index meet or surpass 3 for A21R ?
[A] NO

[Q] Does protein stability index meet or surpass 3 for F20R ?
[A] NO

[Q] Does protein stability index meet or surpass 3 for H2G ?
[A] YES

[Q] Does protein stability index meet or surpass 3 for L12K ?
[A] YES

[Q] Does protein stability index meet or surpass 3 for P15A ?
[A] NO

[Q] Does protein stability index meet or surpass 3 for I4A ?
[A] NO

Cited source: the supplement of paper PMC10567573
